Target Or Test System: UniProt P16092
Sequence (P16092 22-822): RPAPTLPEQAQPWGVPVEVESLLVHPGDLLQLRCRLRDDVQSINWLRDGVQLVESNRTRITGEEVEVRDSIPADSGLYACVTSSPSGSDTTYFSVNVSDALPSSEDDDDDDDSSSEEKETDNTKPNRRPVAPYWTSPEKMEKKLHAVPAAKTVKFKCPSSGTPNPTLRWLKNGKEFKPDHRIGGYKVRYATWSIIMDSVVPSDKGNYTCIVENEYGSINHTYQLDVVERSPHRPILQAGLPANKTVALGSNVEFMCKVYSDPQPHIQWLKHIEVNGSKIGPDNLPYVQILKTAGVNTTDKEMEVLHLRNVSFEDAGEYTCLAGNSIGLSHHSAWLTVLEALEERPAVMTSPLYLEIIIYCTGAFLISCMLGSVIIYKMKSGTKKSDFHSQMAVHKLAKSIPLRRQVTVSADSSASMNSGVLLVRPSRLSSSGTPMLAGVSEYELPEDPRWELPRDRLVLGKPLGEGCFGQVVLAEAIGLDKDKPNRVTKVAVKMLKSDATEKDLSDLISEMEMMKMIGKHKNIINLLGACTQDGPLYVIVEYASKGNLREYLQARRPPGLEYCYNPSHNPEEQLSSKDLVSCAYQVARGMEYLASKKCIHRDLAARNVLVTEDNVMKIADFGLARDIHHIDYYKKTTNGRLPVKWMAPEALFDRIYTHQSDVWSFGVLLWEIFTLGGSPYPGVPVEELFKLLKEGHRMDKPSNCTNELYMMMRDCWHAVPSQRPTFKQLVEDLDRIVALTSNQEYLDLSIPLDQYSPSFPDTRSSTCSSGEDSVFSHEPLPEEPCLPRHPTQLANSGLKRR
Experiment Summary: Binding of 125I-bFGF to CHO cells expressing FGFR-1
We begin with a simple list: items and their reported pIC50.
A value of pIC50 is the negative decimal logarithm of a concentration given in moles per litre.

C[N+](C)(C)c1ccc(-c2c3nc(c(-c4ccc([N+](C)(C)C)cc4)c4ccc([nH]4)c(-c4ccc([N+](C)(C)C)cc4)c4nc(c(-c5ccc([N+](C)(C)C)cc5)c5ccc2[nH]5)C=C4)C=C3)cc1 = 5.74
C[n+]1ccc(-c2c3nc(c(-c4cc[n+](C)cc4)c4ccc([nH]4)c(-c4c(F)c(F)c(F)c(F)c4F)c4nc(c(-c5c(F)c(F)c(F)c(F)c5F)c5ccc2[nH]5)C=C4)C=C3)cc1 = 7.00

Query string: Annotate the molecule C[n+]1ccc(-c2c3nc(c(-c4c(F)c(F)c(F)c(F)c4F)c4ccc([nH]4)c(-c4cc[n+](C)cc4)c4nc(c(-c5c(F)c(F)c(F)c(F)c5F)c5ccc2[nH]5)C=C4)C=C3)cc1 with its measured pIC50.
Result string: 7.52

====

As shown below, each of these compounds has a reported Inhibitory activity in vivo, LLC tumor model (as % of total inhibition) value.
Test system: Lewis lung carcinoma (LLC) lung metastasis
Experiment Summary: Lewis lung carcinoma lung metastasis model
Type: in vivo, C57 black mice
Parameters: reference not given here
Cond: 25 μg/gram; LLC murine tumor model, lung metastasis

C[n+]1ccc(-c2c3nc(c(-c4cc[n+](C)cc4)c4ccc([nH]4)c(-c4cc[n+](C)cc4)c4nc(c(-c5cc[n+](C)cc5)c5ccc2[nH]5)C=C4)C=C3)cc1 [Compound P8] = 90%
C[n+]1cccc(-c2c3nc(c(-c4ccc[n+](C)c4)c4ccc([nH]4)c(-c4ccc[n+](C)c4)c4nc(c(-c5ccc[n+](C)c5)c5ccc2[nH]5)C=C4)C=C3)c1.Cc1ccc(S(=O)(=O)[O-])cc1.Cc1ccc(S(=O)(=O)[O-])cc1.Cc1ccc(S(=O)(=O)[O-])cc1.Cc1ccc(S(=O)(=O)[O-])cc1 = 0%
C[n+]1ccc(-c2c3nc(c(-c4cc[n+](C)cc4)c4ccc([nH]4)c(-c4cc[n+](C)cc4)c4nc(c(-c5cc[n+](C)cc5)c5ccc2[nH]5)C=C4)C=C3)cc1 [Compound P1] = 100%
C[n+]1ccc(-c2c3nc(c(-c4cc[n+](C)cc4)c4ccc([nH]4)c(-c4c(F)c(F)c(F)c(F)c4F)c4nc(c(-c5c(F)c(F)c(F)c(F)c5F)c5ccc2[nH]5)C=C4)C=C3)cc1 = 50%
C[N+](C)(C)c1ccc(-c2c3nc(c(-c4ccc([N+](C)(C)C)cc4)c4ccc([nH]4)c(-c4ccc([N+](C)(C)C)cc4)c4nc(c(-c5ccc([N+](C)(C)C)cc5)c5ccc2[nH]5)C=C4)C=C3)cc1 = 75%
C[n+]1ccc(-c2c3nc(c(-c4cc[n+](C)cc4)c4ccc([nH]4)c(-c4c(F)c(F)c(F)c(F)c4F)c4nc(c(-c5cc[n+](C)cc5)c5ccc2[nH]5)C=C4)C=C3)cc1.[I-].[I-].[I-] = 60%
C[n+]1ccc(-c2c3nc(c(-c4c(F)c(F)c(F)c(F)c4F)c4ccc([nH]4)c(-c4cc[n+](C)cc4)c4nc(c(-c5c(F)c(F)c(F)c(F)c5F)c5ccc2[nH]5)C=C4)C=C3)cc1 = 40%
C[n+]1ccccc1-c1c(F)c(F)c(-c2c3nc(c(-c4c(F)c(F)c(-c5cccc[n+]5C)c(F)c4F)c4ccc([nH]4)c4ccc([nH]4)c(-c4c(F)c(F)c(-c5cccc[n+]5C)c(F)c4F)c4ccc2[nH]4)C=C3)c(F)c1F = 200%

Query string: Given C[n+]1ccccc1-c1c2nc(c(-c3cccc[n+]3C)c3ccc([nH]3)c(-c3cccc[n+]3C)c3nc(c(-c4cccc[n+]4C)c4ccc1[nH]4)C=C3)C=C2 (single isomer, unassigned) , report its Inhibitory activity in vivo, LLC tumor model (as % of total inhibition) on Lewis lung carcinoma (LLC) lung metastasis.
Result string: 90%

Query string: Send back Lewis lung carcinoma (LLC) lung metastasis Inhibitory activity in vivo, LLC tumor model (as % of total inhibition) of C[n+]1ccccc1-c1c(F)c(F)c(-c2c3nc(c(-c4c(F)c(F)c(-c5cccc[n+]5C)c(F)c4F)c4ccc([nH]4)c(-c4c(F)c(F)c(-c5cccc[n+]5C)c(F)c4F)c4nc(c(-c5c(F)c(F)c(-c6cccc[n+]6C)c(F)c5F)c5ccc2[nH]5)C=C4)C=C3)c(F)c1F only.
Result string: 150%

FYI, the data here is from patent US6730666B1.
